# study system: Matrix-associated proTGFβ1 complexes (hLTBP1-proTGFβ1 and hLTBP3-proTGFβ1)
# assay notes: BLI (Octet)
Overview of recorded ECM AVRG (average KD, hLTBP1 and hLTBP3 complexes) for various binders
Please respond with the number in nM and leave the unit unwritten.

Before answering, review these 2 worked examples.
Ab29 (antibody, IgG4, V domains shown) VH: EVQLVESGGGLVQPGRSLRLSCAASGFTFSSFAMNWVRQAPGKGLEWVSYISPDASTIYYAGSVKGRFTISRDNAKNSLYLQMNSLRAEDTAVYYCVRAVLDYGDMLDPWGQGTLVTVSS VL: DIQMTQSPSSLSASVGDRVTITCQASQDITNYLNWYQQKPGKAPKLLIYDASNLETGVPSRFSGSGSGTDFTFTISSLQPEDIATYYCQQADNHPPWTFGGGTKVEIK	0.155
Ab24 (antibody, IgG4, V domains shown) VH: EVQLVESGGGLVQPGRSLRLSCAASGFTFSSFAMYWVRQAPGKGLEWVSYISPDASTIYYADSVKGRFTISRDNAKNSLYLQMNSLRAEDTAVYYCARGVLDYGDMLDPWGQGTLVTVSS VL: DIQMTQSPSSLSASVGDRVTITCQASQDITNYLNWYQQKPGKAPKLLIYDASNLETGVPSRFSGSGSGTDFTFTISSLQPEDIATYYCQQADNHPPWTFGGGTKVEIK	0.222

Please look at the following binder next.
Lab book: ECM AVRG (average KD, hLTBP1 and hLTBP3 complexes) of Ab31 (antibody, IgG4, V domains shown) VH: EVQLVESGGGLVQPGGSLRLSCAASGFTFSSFSMDWVRQAPGKGLEWVSYISPDASTIYYADSVKGRFTISRDNAKNTLYLQMNSLRAEDTAVYYCARAVLDYGDMLDPWGQGTLVTVSS VL: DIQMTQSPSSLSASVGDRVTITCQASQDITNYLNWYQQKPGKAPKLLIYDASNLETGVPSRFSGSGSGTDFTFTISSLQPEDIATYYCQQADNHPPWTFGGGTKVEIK noted as 0.208
